Test system: MDA-MB-231 breast
Protocol text: NCI tumour cell line growth inhibition, 48 h
Examples of molecules with documented TGI follow.
Unit µM implied. Number only.

[[record]]
molecule = "CC(C)=CCc1cc(O)cc2c1OC(C=C(C)C)C1=C2C(=O)C2=C(NCCS2(=O)=O)C1=O (stereo not drawn)"
property_name = "TGI"
result_units = "µM"
result_number = 5.09


Query: I'd like to know its TGI. The molecule in question is CCCCCC(/C=C/C1CCC(=O)C1CC#C[Si](C)(C)C)OCc1ccccc1 (stereo not drawn)
Reply: 54.4

###

Test system: SF-539 CNS
Protocol text: NCI tumour cell line growth inhibition, 48 h; in the data active means GI50 below about 0.43 µM; inactive means the rest
Entry note: the call must match one of class 1 = active, class 0 = inactive

Completed entries (count: 3):
[[record]]
compound = "CCN(CC)c1nc(-c2ccc(Cl)cc2Cl)nc2ccccc12"
label_value = "class 0"

[[record]]
compound = "CCOC(=O)C(=Cc1cccc(Cl)c1)C(=O)OCC"
label_value = "class 0"

[[record]]
compound = "CCCCCCNC(=O)c1nc(-c2ccccc2)oc1Cc1ccc(OP(=O)(O)O)cc1"
label_value = "class 0"


// next entry
Query: Returns: the outcome recorded for C=CCCCCCCCCCCC1(O)C=CC2=[N+](CCCCCN=C(N)N)CCCN21 (stereo not drawn) in this assay.
Reply: class 0
